- tgt: EGFR wildtype (WT) (Homo sapiens, UniProt P00533)
- Sequence (P00533 25-1210): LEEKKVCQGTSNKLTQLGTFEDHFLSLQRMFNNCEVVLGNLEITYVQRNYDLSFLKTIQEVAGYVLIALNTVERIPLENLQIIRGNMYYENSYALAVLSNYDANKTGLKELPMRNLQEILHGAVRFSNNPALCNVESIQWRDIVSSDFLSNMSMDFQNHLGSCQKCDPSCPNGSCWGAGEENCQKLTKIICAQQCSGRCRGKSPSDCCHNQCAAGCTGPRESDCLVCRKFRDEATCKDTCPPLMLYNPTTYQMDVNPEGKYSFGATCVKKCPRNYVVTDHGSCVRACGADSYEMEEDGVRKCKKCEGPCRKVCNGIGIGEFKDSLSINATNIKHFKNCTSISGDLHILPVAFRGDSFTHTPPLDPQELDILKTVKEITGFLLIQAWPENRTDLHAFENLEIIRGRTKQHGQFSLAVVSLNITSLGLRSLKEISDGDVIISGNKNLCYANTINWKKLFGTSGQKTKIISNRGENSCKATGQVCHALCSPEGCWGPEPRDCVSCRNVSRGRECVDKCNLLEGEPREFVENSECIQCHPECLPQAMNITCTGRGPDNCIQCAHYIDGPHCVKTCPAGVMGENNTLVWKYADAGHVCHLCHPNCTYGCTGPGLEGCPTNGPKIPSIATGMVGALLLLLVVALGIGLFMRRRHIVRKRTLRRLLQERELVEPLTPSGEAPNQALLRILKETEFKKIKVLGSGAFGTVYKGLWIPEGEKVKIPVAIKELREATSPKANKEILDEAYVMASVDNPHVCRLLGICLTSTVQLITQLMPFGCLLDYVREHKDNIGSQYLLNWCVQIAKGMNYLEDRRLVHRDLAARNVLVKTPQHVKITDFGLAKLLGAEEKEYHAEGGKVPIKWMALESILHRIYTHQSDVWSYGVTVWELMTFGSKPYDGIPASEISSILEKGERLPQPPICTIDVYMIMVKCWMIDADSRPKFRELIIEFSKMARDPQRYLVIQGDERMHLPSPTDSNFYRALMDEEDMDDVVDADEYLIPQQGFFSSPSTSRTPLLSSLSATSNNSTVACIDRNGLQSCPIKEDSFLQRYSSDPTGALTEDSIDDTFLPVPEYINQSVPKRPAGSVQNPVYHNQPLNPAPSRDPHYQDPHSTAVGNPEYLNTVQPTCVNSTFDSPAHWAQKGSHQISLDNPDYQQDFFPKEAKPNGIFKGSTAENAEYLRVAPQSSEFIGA
- assay procedure: Biochemical EGFR kinase assay (Lance Ultra TR-FRET), wildtype
- condition context: Km ATP; read-out: IC50 WT (nM) Km ATP
test readout: IC50 (nM)

Sample answers from the record:
1) Cn1nc(-c2cnc(Nc3ccnc(-c4cnn(CC(F)F)c4)n3)cc2NN2CCC(O)CC2)cc1C(F)(F)F: 737
2) O=S(=O)(C1CC1)n1cc(-c2nccc(Nc3cc(OC4CCC(O)CC4)c(-c4ccn(C(F)F)n4)cn3)n2)cn1 (centres unmarked): 38.9
3) Cc1nn(S(=O)(=O)N(C)C)cc1-c1nccc(Nc2cc(N[C@H]3CC[C@@](C)(O)CC3)c(-c3ccn(C(F)F)n3)cn2)n1: 14.2
4) COc1ccc(-c2nccc(Nc3cc(N[C@H]4CC[C@@](C)(O)CC4)c(-c4ccn(C(F)F)n4)cn3)n2)cn1: 6830
5) Cn1ccc(-c2cnc(Nc3ccnc(-c4cnn(S(=O)(=O)C5CC5)c4)n3)cc2N[C@H]2CC[C@@H](N(C)C)CC2)n1: 1.1

I = O=C1NCCCC1Nc1cc(Nc2ccnc(-c3cnn(S(=O)(=O)C4CC4)c3)n2)ncc1-c1ccn(C(F)F)n1 (centres unmarked)
II = C[C@]1(O)CC[C@@H](Nc2cc(Nc3ccnc(-c4cnn(S(=O)(=O)C5CC5)c4)n3)ncc2-c2ccn(CC(F)(F)F)n2)CC1
III = CN(C)C[C@H]1CC[C@@H](Nc2cc(Nc3ccnc(-c4cnn(S(=O)(=O)C5CC5)c4)n3)ncc2-c2ccn(C)n2)CC1
Request: Let's sort these by IC50, smallest first. Go ahead? A ranking is expressed here by listing the labels in the requested order.
Response: III, II, I

1 = CC1(O)CCC(Oc2cc(Nc3ccnc(-c4cnn(S(=O)(=O)C5CC5)c4)n3)ncc2-c2cnn(C(F)F)c2)CC1 (centres unmarked)
2 = Cn1nc(-c2cnc(Nc3ccnc(-c4cnn(S(=O)(=O)C5CC5)c4)n3)cc2N[C@H]2CC[C@@H](C(C)(C)O)CC2)cc1C(F)(F)F
3 = CN[C@H]1CC[C@@H](Oc2cc(Nc3ccnc(-c4cnn(S(=O)(=O)C5CC5)c4)n3)ncc2-c2ccn(C(F)F)n2)CC1
4 = C[C@]1(O)CC[C@@H](Nc2cc(Nc3ccnc(-c4cnc5c(c4)NCCO5)n3)ncc2-c2ccn(C(F)F)n2)CC1
5 = O=S(=O)(C1CC1)n1cc(-c2nccc(Nc3cc(NC4CCCC4O)c(-c4ccn(C(F)F)n4)cn3)n2)cn1 (centres unmarked)
Request: Please list the entries, largest IC50 first. A ranking is expressed here by listing the labels in the requested order.
Response: 4, 5, 3, 1, 2
(4: 377 nM, 5: 218 nM, 3: 149 nM, 1: 65.3 nM, 2: 12.9 nM)

Source: patent US12258327B2
